Tested on: mouse's leaching cell solution (abdominal cavity cells), histamine release by 48/80 compound
assay.overview: Drug inhibiting effect on histamine leaching from mouse abdominal cavity cells treated with 48/80 compound
Assay type: cell-based
measurement.setup: testing drug 100 μg/ml; adding 5% of coffee extract
readout: inhibiting rate (%) (adding 5% of coffee extract)
Field format: number, assumed %, no unit text.

Take a look at these entries with their results.
O=C([O-])CC(O)(CC(=O)O)C(=O)O.[K+] [potassium dihydrogen citrate]
100
O=C([O-])/C=C\C(=O)O.[Na+] [sodium hydrogen maleate]
100
CC1(C)[C@@H](O[C@H]2O[C@H](C(=O)[O-])[C@@H](O)[C@H](O)[C@H]2O[C@@H]2O[C@H](C(=O)[O-])[C@@H](O)[C@H](O)[C@H]2O)CC[C@]2(C)[C@H]3C(=O)C=C4[C@@H]5C[C@@](C)(C(=O)[O-])CC[C@]5(C)CC[C@@]4(C)[C@]3(C)CC[C@@H]12.[Na+].[Na+].[Na+] [Trisodium glycyrrhizinate, reference compound]
48.3
O=C([O-])CC(O)C(=O)O.[Na+] (centres unmarked) [sodium hydrogen malate]
100
O=C([O-])CCC(=O)O.[K+] [potassium hydrogen succinate]
100
O=C([O-])CCC(=O)O.[Na+] [sodium hydrogen succinate]
100
O=C([O-])CC(O)(CC(=O)O)C(=O)[O-].[K+].[K+] [dipotassium hydrogen citrate]
48.7
O=C([O-])C(O)C(O)C(=O)O.[Na+] (centres unmarked) [sodium hydrogen tartrate]
100
O=C([O-])CC(O)(CC(=O)[O-])C(=O)O.[Na+].[Na+] [disodium hydrogen citrate]
49.4
O=C(O)CO [α-hydroxy ethanoic acid]
100

Next molecule, please.
Find the recorded inhibiting rate (%) (adding 5% of coffee extract) belonging to O=C(O)CC(O)C(=O)O.[K] (centres unmarked) [potassium hydrogen malate] and report it.
100
